Values compiled from patent US10273234B2.

molecular target: Human ATX protein (Homo sapiens (Human)); test: ATX biochemical FRET assay with FS-3 substrate; settings: 1.0 μg/mL ATX, 2 μM FS-3, 2 hours at room temperature
MEASURED ENDPOINT: IC50

Use these answered entries as a reference point.
CCCCCCCOc1cccc2cc(CN3CCC(C(=O)O)CC3)ccc12	> 5 µM
CC(C)(C)[C@H]1CC[C@H](Oc2cccc3cc(CN4C5CCC4CC(C(=O)O)C5)ccc23)CC1 (some centres unmarked)	0.5 to 5 µM
C[C@H]1CC[C@@H](Oc2cccc3cc(CN4C5CCCC4CC(C(=O)O)C5)ccc23)CC1 (some centres unmarked)	0.5 to 5 µM
O=C(O)C1CN(Cc2ccc3c(O[C@H]4CC[C@H](C(F)(F)F)CC4)cccc3c2)C1	0.5 to 5 µM

// next item, IC50 requested
Entry CC(C)(C)[C@H]1CC[C@H](Oc2cccc3cc(CN4CC5CC(C(=O)O)CC5C4)ccc23)CC1 (some centres unmarked) — recorded IC50 = 0.5 to 5 µM

###

molecular target: Human ATX protein (Homo sapiens (Human)); assay: ATX biochemical FRET assay with FS-3 substrate; details: 1.0 μg/mL ATX, 2 μM FS-3, 2 hours at room temperature
Reported IC50 values follow for various molecules

CC(C)(C)[C@H]1CC[C@H](Oc2cccc3cc(CN4CCC(C(=O)O)CC4)ccc23)CC1	< 0.5 µM
CCCC[C@H]1CC[C@H](Oc2cccc3cc(CN4CC(C(=O)O)C4)ccc23)CC1	> 5 µM
C[C@H]1CC[C@@H](Oc2cccc3cc(CN4CCC(C(=O)O)CC4)ccc23)CC1	> 5 µM
CC1(C)C(NCc2ccc3c(O[C@H]4CC[C@H](C(C)(C)C)CC4)cccc3c2)CC1C(=O)O (stereo partly drawn)	0.5 to 5 µM
O=C(O)C1CCN(Cc2ccc3c(O[C@H]4CC[C@H](C(F)(F)F)CC4)cccc3c2)CC1	0.5 to 5 µM

The molecule listed as CC(C)[C@H]1CC[C@@H](Oc2cccc3cc(CN4CCC(C(=O)O)CC4)ccc23)CC1 shows IC50 equal to > 5 µM
